Where these numbers come from: PubChem BioAssay (NCI)

- Test system: M14 melanoma
- test.protocol: NCI-60 one-dose screen, 48 h (100 = growth as untreated, 0 = no growth, -100 = all killed)
- measurement.setup: 10 µM unless noted
Compounds without any hit were thinned out: in the full panel of roughly 83,000, 20% have a hit.
metric.name: growth (%)
The reply should be a number in %, with the unit left off.

{"columns": ["molecule", "growth (%)"],
 "data": [
  ["O=P(O)(Nc1ccccc1)Nc1ccccc1", 88.4],
  ["Oc1ccccc1C=NCCN=Cc1ccccc1O", 102],
  ["CCOC(=O)C1C(C=C(C)C)C1(C)C (stereo unspecified)", 106],
  ["CC12CCC3C(CCC4CC(O)CCC43C)C1CCC2=O (stereo unspecified)", 98.8],
  ["CC1=C(C)C(=O)O[C@@H]([C@](C)(O)[C@]2(O)CC[C@@]3(O)[C@@H]4C[C@H]5O[C@]56CC=CC(=O)[C@]6(C)[C@H]4CC[C@]23C)C1", 11.3]
]}

Look up growth for this molecule: `Cc1cc(Br)c([N+](=O)[O-])cc1[N+](=O)[O-]` 96.2
